All figures here come from patent US20260256738A1.

- System: pERK in MIA PaCa-2 KRAS^G12C
- METHOD_SUMMARY: IC50 for pERK in 2D grown cell lines (Table 3)
- Type: cell-based
- DETAILS: MIA PaCa-2 KRAS^G12C human pancreatic adenocarcinoma
PROPERTY: IC50 (nM)

COMPOUND	OBSERVED_MEASUREMENT
CNS(=O)(=O)Nc1cccc(Cc2c(CN(C)C)c3ccc(OC(=O)N(C)C)cc3oc2=O)c1F [Compound A]	49.4

* * *

- METHOD_SUMMARY: Single dose PK profile in Colon-26 tumor bearing mice
- Assay type: in vivo
- DETAILS: female, mouse, po, 100 mg/kg; plasma; 100 mpk p.o.; 2nd of two values in cell

SMILES	AUC(0-inf) [ng·h/mL]
CNS(=O)(=O)Nc1cccc(Cc2c(CN(C)C)c3ccc(OC(=O)N(C)C)cc3oc2=O)c1F	31100

* * *

- System: pERK in SK-MEL-28 BRAF^V600E
- METHOD_SUMMARY: IC50 for pERK in 2D grown cell lines (Table 3)
- Assay type: cell-based
- DETAILS: SK-MEL-28 BRAF^V600E human malignant melanoma

SMILES	TARGET_OR_SYSTEM	IC50 / nM
CNS(=O)(=O)Nc1cccc(Cc2c(CN(C)C)c3ccc(OC(=O)N(C)C)cc3oc2=O)c1F	pERK in SK-MEL-28 BRAF^V600E	29.9

* * *

- METHOD_SUMMARY: Single dose PK profile in Colon-26 tumor bearing mice
- Assay type: in vivo
- DETAILS: female, mouse, po, 25 mg/kg; plasma; 25 mpk p.o.; 2nd of two values in cell; read-out: AUC0-t

SMILES	AUC(0-t), ng·h/mL
CNS(=O)(=O)Nc1cccc(Cc2c(CN(C)C)c3ccc(OC(=O)N(C)C)cc3oc2=O)c1F	3640

* * *

Entries annotated with measured CYP450 Panel 1A2
- TARGET_OR_SYSTEM: CYP450 1A2 (Homo sapiens)
- Sequence (P05177 1-516): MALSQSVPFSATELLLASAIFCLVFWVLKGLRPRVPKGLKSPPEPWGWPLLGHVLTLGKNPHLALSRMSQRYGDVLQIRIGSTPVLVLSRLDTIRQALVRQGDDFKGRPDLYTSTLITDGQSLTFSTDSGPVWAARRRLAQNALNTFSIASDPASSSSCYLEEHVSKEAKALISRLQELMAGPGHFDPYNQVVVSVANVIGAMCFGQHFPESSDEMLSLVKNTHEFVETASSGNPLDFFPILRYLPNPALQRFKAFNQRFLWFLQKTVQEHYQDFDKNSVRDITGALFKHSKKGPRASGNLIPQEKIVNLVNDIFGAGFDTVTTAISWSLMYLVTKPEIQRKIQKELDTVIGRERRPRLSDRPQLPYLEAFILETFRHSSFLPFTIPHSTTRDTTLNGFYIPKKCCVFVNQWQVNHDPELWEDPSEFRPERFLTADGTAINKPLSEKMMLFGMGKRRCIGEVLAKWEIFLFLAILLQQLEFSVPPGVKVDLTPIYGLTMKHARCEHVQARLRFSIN
- METHOD_SUMMARY: CYP450 Panel
- DETAILS: 10 μM; substrate phenacetin; in % (unit assumed)

COMPOUND	CYP450 Panel 1A2
CNS(=O)(=O)Nc1nccc(Cc2c(C)c3ccc(Oc4ncccn4)cc3oc2=O)c1F [Reference 2]	0.8
CNS(=O)(=O)Nc1cccc(Cc2c(CN(C)C)c3ccc(OC(=O)N(C)C)cc3oc2=O)c1F [Compound A]	4.8
CNS(=O)(=O)Nc1cccc(Cc2c(C)c3ccc(OC(=O)N(C)C)cc3oc2=O)c1F [Reference 7]	0.3
Cn1cnc2c(F)c(Nc3ccc(Br)cc3Cl)c(C(=O)NOCCO)cc21 [Reference 1, Selumetinib]	8.3
